Reported values of IC50 for individual entries
SYSTEM UNDER TEST: MAGL (Mus musculus)
Construct: Proteomes (mouse brain membrane fraction or cell lysates); from tissue; host or cells: mouse brain membrane fraction (or unspecified cell lysates)
Sequence (O35678 1-303): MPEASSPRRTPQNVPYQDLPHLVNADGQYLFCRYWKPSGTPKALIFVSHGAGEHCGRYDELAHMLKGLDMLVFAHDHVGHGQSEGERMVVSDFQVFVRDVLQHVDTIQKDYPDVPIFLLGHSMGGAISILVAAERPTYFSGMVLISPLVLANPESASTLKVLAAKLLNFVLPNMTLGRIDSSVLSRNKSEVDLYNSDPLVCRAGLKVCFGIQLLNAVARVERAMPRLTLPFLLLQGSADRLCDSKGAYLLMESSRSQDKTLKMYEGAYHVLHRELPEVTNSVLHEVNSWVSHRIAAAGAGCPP
ASSAY NOTES: In vitro competitive activity-based protein profiling (mouse), MAGL
Assay type: biochemical
RECORDED CONDITIONS: mouse brain membrane fraction or cell lysates, 30 min preincubation at 37° C, FP-Rh probe

# count of solved cases: 3
O=C(O)C1CCN(c2cc(CN3CCN(C(=O)OC(C(F)(F)F)C(F)(F)F)CC3)cc(C(F)(F)F)c2)C1 (stereo not shown); 100 to 1000 nM
O=C(OC(C(F)(F)F)C(F)(F)F)N1CCN(Cc2cccc(OC(F)(F)F)c2N2CCC(N3CCCC3)CC2)CC1; < 100 nM
O=C(OC(C(F)(F)F)C(F)(F)F)N1CCN(Cc2ccc(Cl)cc2N2CC[C@H](N3CCCC3=O)C2)CC1; < 100 nM

Moving on to the next compound.
query: Need IC50, item `O=C(OC(C(F)(F)F)C(F)(F)F)N1CCN(Cc2ccc(Cl)cc2N2CC[C@@H](N3CCCCC3=O)C2)CC1`
result: < 100 nM
